Source listed as the supplement of paper PMC11451515.

# Test system: SEM cells
# assay.name: cell viability relative to DMSO control; higher = less cytotoxic
# condition.context: RPMI 5 mM glucose + 10% dialyzed FBS; 48 h; 0.0211 µM
property.measured: cell viability (%)
# output: bare number, implied unit %

For orientation, consider the following solved cases.
compound	property.measured	reported.result
CCN(CCO)CCCC(C)Nc1ccnc2cc(Cl)ccc12 (stereo not drawn)	cell viability	82.5
C[C@H]1CN(C[C@@H](C)N1)C2=C(F)C3=C(C(=C2F)N)C(=O)\C(=C/N3C4CC4)C(O)=O	cell viability	114
O=C(O)CCc1ccc(NCc2cccc(Oc3ccccc3)c2)cc1	cell viability	116
Cc1ccnc(N[S+](=O)([O-])c2ccc(NC(=O)Nc3ccc([S+](=O)([O-])Nc4nccc(C)n4)cc3)cc2)n1	cell viability	85.8
O=C(/C=C/c1cccnc1)NCCCCC1CCN(C(=O)c2ccccc2)CC1	cell viability	7.49
CC1(C)CCC(=C(\C1)C2=CC=C(Cl)C=C2)/CN3CCN(CC3)C4=CC(=C(C=C4)C(=O)N[S+]([O-])(=O)C5=CC=C(NCC6CCOCC6)C(=C5)[N+]([O-])=O)OC7=CN=C8[NH]C=CC8=C7	cell viability	53.8
Cc1ccc(Nc2nccc(N(C)c3ccc4c(C)n(C)nc4c3)n2)cc1[S+](N)(=O)[O-]	cell viability	105

Param item = Cc1ccc(C(N)=O)cc1Nc1nccc(-c2cn(C(C)C)c3cnccc23)n1 ; retrieve measured cell viability.
113

###

# Test system: SEM cells
# assay.name: cell viability relative to DMSO control; higher = less cytotoxic
# condition.context: RPMI 5 mM glucose + 10% FBS; 48 h; 0.0632 µM
property.measured: cell viability (%)
# output: bare number, implied unit %

For orientation, consider the following solved cases.
compound	cell viability, %
C=C1C(=O)O[C@@H]2[C@H]3O[C@]3(C)CC/C=C(\C)CC[C@@H]12	87.6
COc1cc2nc(N3CCN(C(=O)c4ccco4)CC3)nc(N)c2cc1OC	104
Cc1ccnc(N[S+](=O)([O-])c2ccc(NC(=O)Nc3ccc([S+](=O)([O-])Nc4nccc(C)n4)cc3)cc2)n1	64.8

Param item = O=C(O)c1nn(Cc2ccc(Cl)cc2Cl)c2ccccc12 ; retrieve measured cell viability.
93.3

Param item = CC[C@@H](C)[C@H](NC(=O)[C@H](CC1CCCCC1)NC(=O)c1ccno1)C(=O)N1CCC2(CCc3ccccc32)CC1 ; retrieve measured cell viability.
67.5

Param item = O=C1CCc2cc(OCCCCc3nnnn3C3CCCCC3)ccc2N1 ; retrieve measured cell viability.
88.7

Param item = NNC(=O)c1ccncc1 ; retrieve measured cell viability.
116

Param item = COc1ccc(CC2SC(=O)NC2=O)cc1C(=O)NCc1ccc(C(F)(F)F)cc1 (stereo unspecified) ; retrieve measured cell viability.
79.8

Param item = NC/1=N/C(=O)C2=C([NH]C=C2CCC3=CC=C(C=C3)C(=O)N[C@@H](CCC(O)=O)C(O)=O)N1 ; retrieve measured cell viability.
99.7

Param item = CN1C(=O)C(=C/2N(C(=O)N(C3CC3)C(=O)C2=C1/NC4=CC=C(I)C=C4F)C5=CC=CC(=C5)NC(C)=O)\C ; retrieve measured cell viability.
136

Param item = Oc1ccc(-c2nc(-c3ccncc3)c(-c3ccc(F)cc3)[nH]2)cc1 ; retrieve measured cell viability.
76.1
